Data provenance: paper PMC11574364

Listed below: binding signal values for each entry.
Tested System: KRR1 (Homo sapiens)
Sequence (Q13601 36-250): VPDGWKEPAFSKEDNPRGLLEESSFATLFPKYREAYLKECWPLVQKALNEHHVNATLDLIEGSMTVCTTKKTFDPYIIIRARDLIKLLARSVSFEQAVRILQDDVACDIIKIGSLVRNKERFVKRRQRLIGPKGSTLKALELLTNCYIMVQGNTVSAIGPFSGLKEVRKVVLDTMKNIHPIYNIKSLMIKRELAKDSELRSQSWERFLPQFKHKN
Test Details: protein domain microarray probed with biotinylated miRNA; Domain array: 20 mM Tris-HCl pH 7.4, 200 mM KCl, 0.2 mM EDTA, 0.05% NP40, 2 ug/ul heparin, overnight 4 C. ORF array: PBS pH 7.0 with RNase inhibitor, 100 ng RNA; high values mean tight binding
Condition Label: ssRNA
Assay Endpoint: binding signal (fluorescence intensity)

[[record]]
residue_sequence = "AGAGGUAGUAGGUUGCAUAGUU"
tested_system = "KRR1 (Homo sapiens)"
reported = 73.6

[[record]]
residue_sequence = "CAGUGCAAUGAUGAAAGGGCAU"
tested_system = "KRR1 (Homo sapiens)"
reported = 74.2

[[record]]
residue_sequence = "UGAGGUAGUAGGUUGUGUGGUU"
tested_system = "KRR1 (Homo sapiens)"
reported = 153

[[record]]
residue_sequence = "UGAGGUAGUAGGUUGUAUGGUU"
tested_system = "KRR1 (Homo sapiens)"
reported = 92.2


* * *

Tested System: RBMY1F (Homo sapiens, UniProt Q15415)
Sequence (Q15415 1-110): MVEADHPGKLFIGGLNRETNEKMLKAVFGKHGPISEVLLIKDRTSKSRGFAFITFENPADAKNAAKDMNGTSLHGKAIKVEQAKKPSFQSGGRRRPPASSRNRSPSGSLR
Test Details: protein domain microarray probed with biotinylated miRNA; Domain array: 20 mM Tris-HCl pH 7.4, 200 mM KCl, 0.2 mM EDTA, 0.05% NP40, 2 ug/ul heparin, overnight 4 C. ORF array: PBS pH 7.0 with RNase inhibitor, 100 ng RNA; high values mean tight binding
Condition Label: ssRNA
Assign class by binding signal: not lower than 1000 fluorescence intensity means yes (1); lower than 1000 fluorescence intensity means no (0).

[[record]]
residue_sequence = "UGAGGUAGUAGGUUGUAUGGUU"
category = "yes (1)"

[[record]]
residue_sequence = "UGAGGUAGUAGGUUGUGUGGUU"
category = "yes (1)"

[[record]]
residue_sequence = "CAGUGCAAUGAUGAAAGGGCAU"
category = "yes (1)"

[[record]]
residue_sequence = "UAGCUUAUCAGACUGAUGUUGA"
category = "no (0)"

[[record]]
residue_sequence = "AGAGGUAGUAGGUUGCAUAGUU"
category = "yes (1)"


* * *

Tested System: RBMY1A1 / RBMY1B (Homo sapiens, UniProt P0DJD3)
Sequence (P0DJD3 1-110): as the sequence (Q15415 1-110) above, with T71K counted along it
Test Details: protein domain microarray probed with biotinylated miRNA; Domain array: 20 mM Tris-HCl pH 7.4, 200 mM KCl, 0.2 mM EDTA, 0.05% NP40, 2 ug/ul heparin, overnight 4 C. ORF array: PBS pH 7.0 with RNase inhibitor, 100 ng RNA; high values mean tight binding
Condition Label: ssRNA
Assay Endpoint: binding signal (fluorescence intensity)

[[record]]
residue_sequence = "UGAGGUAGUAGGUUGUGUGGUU"
tested_system = "RBMY1A1 / RBMY1B (Homo sapiens, UniProt P0DJD3)"
endpoint_unit = "fluorescence intensity"
reported = 1360

[[record]]
residue_sequence = "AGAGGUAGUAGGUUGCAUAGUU"
tested_system = "RBMY1A1 / RBMY1B (Homo sapiens, UniProt P0DJD3)"
endpoint_unit = "fluorescence intensity"
reported = 2000

[[record]]
residue_sequence = "UGAGGUAGUAGGUUGUAUAGUU"
tested_system = "RBMY1A1 / RBMY1B (Homo sapiens, UniProt P0DJD3)"
endpoint_unit = "fluorescence intensity"
reported = 754

[[record]]
residue_sequence = "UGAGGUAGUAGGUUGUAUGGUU"
tested_system = "RBMY1A1 / RBMY1B (Homo sapiens, UniProt P0DJD3)"
endpoint_unit = "fluorescence intensity"
reported = 1400


* * *

Tested System: SF2 (Homo sapiens, UniProt Q07955)
Sequence (Q07955 1-220): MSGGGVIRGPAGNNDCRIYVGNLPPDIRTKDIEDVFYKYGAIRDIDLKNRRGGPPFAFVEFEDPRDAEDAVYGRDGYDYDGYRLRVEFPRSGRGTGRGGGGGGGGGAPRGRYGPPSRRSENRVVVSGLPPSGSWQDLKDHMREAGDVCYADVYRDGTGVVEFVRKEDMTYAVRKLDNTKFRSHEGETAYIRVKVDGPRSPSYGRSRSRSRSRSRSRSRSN
Test Details: protein domain microarray probed with biotinylated miRNA; Domain array: 20 mM Tris-HCl pH 7.4, 200 mM KCl, 0.2 mM EDTA, 0.05% NP40, 2 ug/ul heparin, overnight 4 C. ORF array: PBS pH 7.0 with RNase inhibitor, 100 ng RNA; high values mean tight binding
Condition Label: ssRNA
Assay Endpoint: binding signal (fluorescence intensity)

[[record]]
residue_sequence = "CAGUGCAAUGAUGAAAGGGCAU"
endpoint_unit = "fluorescence intensity"
reported = 702

[[record]]
residue_sequence = "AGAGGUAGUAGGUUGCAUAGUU"
endpoint_unit = "fluorescence intensity"
reported = 925

[[record]]
residue_sequence = "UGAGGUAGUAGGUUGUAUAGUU"
endpoint_unit = "fluorescence intensity"
reported = 70.4

[[record]]
residue_sequence = "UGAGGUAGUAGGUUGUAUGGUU"
endpoint_unit = "fluorescence intensity"
reported = 700

[[record]]
residue_sequence = "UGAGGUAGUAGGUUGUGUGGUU"
endpoint_unit = "fluorescence intensity"
reported = 896


* * *

Tested System: RBM21 (Homo sapiens)
Sequence: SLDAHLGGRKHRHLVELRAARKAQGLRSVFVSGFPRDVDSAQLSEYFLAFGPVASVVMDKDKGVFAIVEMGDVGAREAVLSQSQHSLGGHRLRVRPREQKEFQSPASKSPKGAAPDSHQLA
Test Details: protein domain microarray probed with biotinylated miRNA; Domain array: 20 mM Tris-HCl pH 7.4, 200 mM KCl, 0.2 mM EDTA, 0.05% NP40, 2 ug/ul heparin, overnight 4 C. ORF array: PBS pH 7.0 with RNase inhibitor, 100 ng RNA; high values mean tight binding
Condition Label: ssRNA
Assay Endpoint: binding signal (fluorescence intensity)

[[record]]
residue_sequence = "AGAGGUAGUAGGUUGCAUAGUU"
reported = 34.3

[[record]]
residue_sequence = "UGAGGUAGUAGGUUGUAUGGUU"
reported = 53.6

[[record]]
residue_sequence = "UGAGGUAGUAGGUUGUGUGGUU"
reported = 63.5

[[record]]
residue_sequence = "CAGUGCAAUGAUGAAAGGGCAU"
reported = 38.1


* * *

Tested System: hnRNP-M(1-2) (Homo sapiens, UniProt P52272)
Sequence: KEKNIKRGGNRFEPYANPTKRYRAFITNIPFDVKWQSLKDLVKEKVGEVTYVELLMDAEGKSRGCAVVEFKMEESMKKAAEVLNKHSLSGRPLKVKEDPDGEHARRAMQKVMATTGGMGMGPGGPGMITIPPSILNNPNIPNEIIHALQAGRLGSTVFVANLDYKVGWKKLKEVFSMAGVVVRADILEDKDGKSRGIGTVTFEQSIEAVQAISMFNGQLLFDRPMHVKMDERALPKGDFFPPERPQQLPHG
Test Details: protein domain microarray probed with biotinylated miRNA; Domain array: 20 mM Tris-HCl pH 7.4, 200 mM KCl, 0.2 mM EDTA, 0.05% NP40, 2 ug/ul heparin, overnight 4 C. ORF array: PBS pH 7.0 with RNase inhibitor, 100 ng RNA; high values mean tight binding
Condition Label: ssRNA
Assay Endpoint: binding signal

[[record]]
residue_sequence = "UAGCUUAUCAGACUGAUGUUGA"
assay_endpoint = "binding signal"
reported = "584 fluorescence intensity"

[[record]]
residue_sequence = "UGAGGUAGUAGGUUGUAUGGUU"
assay_endpoint = "binding signal"
reported = "1450 fluorescence intensity"

[[record]]
residue_sequence = "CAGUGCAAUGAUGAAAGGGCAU"
assay_endpoint = "binding signal"
reported = "947 fluorescence intensity"

[[record]]
residue_sequence = "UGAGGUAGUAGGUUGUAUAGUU"
assay_endpoint = "binding signal"
reported = "581 fluorescence intensity"


* * *

Tested System: hnRNP-A/B (Homo sapiens, UniProt Q99729)
Sequence (Q99729 50-250): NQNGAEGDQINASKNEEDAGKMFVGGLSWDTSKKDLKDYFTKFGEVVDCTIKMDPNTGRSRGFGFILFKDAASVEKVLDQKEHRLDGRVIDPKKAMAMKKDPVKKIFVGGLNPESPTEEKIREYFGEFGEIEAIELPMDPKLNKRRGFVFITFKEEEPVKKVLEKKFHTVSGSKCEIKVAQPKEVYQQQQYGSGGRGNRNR
Test Details: protein domain microarray probed with biotinylated miRNA; Domain array: 20 mM Tris-HCl pH 7.4, 200 mM KCl, 0.2 mM EDTA, 0.05% NP40, 2 ug/ul heparin, overnight 4 C. ORF array: PBS pH 7.0 with RNase inhibitor, 100 ng RNA; high values mean tight binding
Condition Label: ssRNA
Item-by-item account of binding signal
Assay Endpoint: binding signal (fluorescence intensity)

[[record]]
residue_sequence = "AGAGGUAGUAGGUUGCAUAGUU"
endpoint_unit = "fluorescence intensity"
reported = 1830

[[record]]
residue_sequence = "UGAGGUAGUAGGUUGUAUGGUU"
endpoint_unit = "fluorescence intensity"
reported = 1150

[[record]]
residue_sequence = "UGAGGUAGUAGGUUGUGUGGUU"
endpoint_unit = "fluorescence intensity"
reported = 1290

[[record]]
residue_sequence = "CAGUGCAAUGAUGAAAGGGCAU"
endpoint_unit = "fluorescence intensity"
reported = 1110


* * *

Examples of sequences with documented binding signal follow.
Tested System: hnRNP-P2 (Homo sapiens)
Sequence (P35637 265-390): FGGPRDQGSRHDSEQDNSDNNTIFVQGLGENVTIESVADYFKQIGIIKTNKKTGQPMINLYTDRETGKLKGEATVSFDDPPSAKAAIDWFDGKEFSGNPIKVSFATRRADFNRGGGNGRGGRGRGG
Test Details: protein domain microarray probed with biotinylated miRNA; Domain array: 20 mM Tris-HCl pH 7.4, 200 mM KCl, 0.2 mM EDTA, 0.05% NP40, 2 ug/ul heparin, overnight 4 C. ORF array: PBS pH 7.0 with RNase inhibitor, 100 ng RNA; high values mean tight binding
Condition Label: ssRNA
Assay Endpoint: binding signal (fluorescence intensity)

[[record]]
residue_sequence = "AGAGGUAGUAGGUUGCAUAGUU"
tested_system = "hnRNP-P2 (Homo sapiens)"
reported = 131

[[record]]
residue_sequence = "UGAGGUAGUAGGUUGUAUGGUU"
tested_system = "hnRNP-P2 (Homo sapiens)"
reported = 441

[[record]]
residue_sequence = "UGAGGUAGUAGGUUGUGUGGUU"
tested_system = "hnRNP-P2 (Homo sapiens)"
reported = 576

[[record]]
residue_sequence = "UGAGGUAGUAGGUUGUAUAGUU"
tested_system = "hnRNP-P2 (Homo sapiens)"
reported = 58.1

